- System: HepG2
- test name: cells
- measurement setup: Homo sapiens, HepG2, 48 h
- Description: Cytotoxicity against human HepG2 cells after 48 hrs by MTT assay
property: pIC50
// scale note: pIC50 = -log10(conc_M); give the bare number

Find pIC50 for CCOP(=O)(OCC)C(NC(=O)C(C)Oc1ccc2c(c1O)C(=O)c1ccccc1C2=O)c1cccc(Br)c1 (stereo not drawn) on HepG2 and write it down.
4.63

Find pIC50 for `O=c1[nH]cc(F)c(=O)[nH]1` on HepG2 and write it down.
4.42

Find pIC50 for CCOP(=O)(OCC)C(NC(=O)C(C)Oc1ccc2c(c1O)C(=O)c1ccccc1C2=O)c1ccccc1Cl (stereo not drawn) on HepG2 and write it down.
4.70

Find pIC50 for CCOP(=O)(OCC)C(NC(=O)C(C)Oc1ccc2c(c1O)C(=O)c1ccccc1C2=O)c1cccc(Cl)c1 (stereo not drawn) on HepG2 and write it down.
4.15

Find pIC50 for CCOP(=O)(OCC)C(NC(=O)C(C)Oc1ccc2c(c1O)C(=O)c1ccccc1C2=O)c1ccccc1OC (stereo not drawn) on HepG2 and write it down.
4.05
